// values below are reported Kd
targetOfAssay: T1, canine PD-1 ECD-6His
T1 chain: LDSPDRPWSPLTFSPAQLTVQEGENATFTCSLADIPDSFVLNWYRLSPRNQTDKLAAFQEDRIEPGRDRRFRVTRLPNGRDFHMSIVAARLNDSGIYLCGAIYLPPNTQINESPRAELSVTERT
experiment: SPR; monovalent binding
Please give a number only; it is taken to be in nM.

# example entries with known answers
PMX126 (antibody, V domains shown) VH: EVQLVESGGDLVKPAGSLRLSCLASGFTFSSYSMSWVRQAPEKGLQSVAGINSDGDRTYYTDAVKGRFTISRDNAKSTVYLQMNSLRAEDTAMYYCVRGFSSFNAFGYWGQGTLVTVSS VL: DIVMTQTPLSLSVSPGETASISCKASQSLLHSDGNTYLSWFRQKPGQSPHRLIYAVSHRHPGVPDRFSGSGSGTDFTLRISRVEADDAGLYYCGQVIQDPWTFGAGTKVELK | 6.8
PMX127 (antibody, V domains shown) VH: EVQLVESGGDLVKPGGSLRLSCVASGFSFSRYHMSWVRQAPGKGLQWVAYIVSGGISTSYADAVKGRFTISRDNAKNTLFLQMNSLRAEDTAVYYCATYGSYFFDTWGQGTLVTVSS VL: DIVMTQTPLSLSVSPGETASIFCKASQSLLHSDGKSYLNWFRQKPGQSPQRLIYRVSNRDPGVPDRFSGSGSGTDFTLRISRVEADDTGLYYCGQVIQDPTFGAGTKVELK | 2.2

Turning now to a further record.
Prompt: Consider the binder shown here: PMX152 (antibody, V domains shown) VH: EVQLVESGGDLVKPGGSLRLSCVASGFTFSRYYMNWVRQAPGKGPQWVAYINNAGSDRNYVDAVKGRFTISRDNAKNTLYLQMNSLRAEDTAVYYCASEIRGVVVVGHLDYWGQGTLVTVSS VL: SYVLTQLPSKSVTLNQPAHITCGGDNIGSKSVHWYQQKLGQAPVLIIYYDSIRPTGIPERFSGATSGNTATLTISGALAEDEADYYCQVWDSSAKAWVFGEGTQLTVL What is its recorded Kd?
Completion: 24.2
